Data origin: patent US7932262B2

# tested_target: PDK1 kinase (Homo sapiens, UniProt O15530)
# Sequence (O15530 whole entry): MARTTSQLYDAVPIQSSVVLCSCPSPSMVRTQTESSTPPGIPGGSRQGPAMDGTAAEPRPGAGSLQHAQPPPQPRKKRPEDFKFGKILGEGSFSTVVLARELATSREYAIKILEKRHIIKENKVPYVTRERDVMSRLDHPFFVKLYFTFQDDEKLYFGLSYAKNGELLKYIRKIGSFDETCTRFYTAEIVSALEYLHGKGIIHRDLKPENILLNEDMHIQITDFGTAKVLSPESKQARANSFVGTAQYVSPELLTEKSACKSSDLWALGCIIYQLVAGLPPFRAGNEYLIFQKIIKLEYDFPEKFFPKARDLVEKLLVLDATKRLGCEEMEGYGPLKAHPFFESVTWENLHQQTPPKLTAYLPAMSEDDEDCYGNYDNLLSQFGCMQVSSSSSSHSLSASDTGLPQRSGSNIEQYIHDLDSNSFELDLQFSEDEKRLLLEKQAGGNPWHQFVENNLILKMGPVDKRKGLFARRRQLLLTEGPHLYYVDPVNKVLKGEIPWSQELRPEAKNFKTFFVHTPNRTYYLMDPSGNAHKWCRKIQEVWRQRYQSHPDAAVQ
# experiment_notes: PDK1 Kinase Alpha Screen Assay
# Assay type: biochemical
# experimental_parameters: PDK1 Kinase Alpha Screen Assay; read-out: PDK1 IC50
reported_property: IC50

Record excerpt, results attached:
chem_smiles: CCN1CC(Oc2cccc3cnc(Nc4ccc(S(N)(=O)=O)cc4)nc23)C1
experimental_result: < 5 µM

chem_smiles: C#Cc1cc2cnc(Nc3ccc(C(=O)NC(C)C)cc3)nc2cc1OC1CCN(C(C)C)CC1
experimental_result: < 5 µM

chem_smiles: NS(=O)(=O)c1ccc(Nc2ncc3cccc(OCC(=O)N4CCOCC4)c3n2)cc1
experimental_result: 5 to 10 µM

Q) Recorded IC50 of `COCCN(C)Cc1cccc2cnc(Nc3ccc(S(N)(=O)=O)cc3)nc12` , please.
A) < 5 µM
